Listed here: items and their measured mass density.
Assay: xn = mol fraction of the nth substance listed
Settings: 308.15 K; 101 kPa; Liquid; Vibrating tube method; x1 = 0.3
Numbers after ± are expanded uncertainties.

Before answering, review these 3 worked examples.
> print(dat)
                                   compound  measured.attribute          measurement
1  COC(=O)CCCCl [methyl 4-chlorobutanoate] + c1ccccc1        mass density  952.12 ± 0.15 kg/m3
2  COC(=O)CCCCl [methyl 4-chlorobutanoate] + Cc1ccccc1C        mass density  938.39 ± 0.15 kg/m3
3  COC(=O)CCCCl [methyl 4-chlorobutanoate] + Cc1ccccc1        mass density  936.79 ± 0.17 kg/m3

Problem: Tell us which mass density value is on record for COC(=O)CCCCl [methyl 4-chlorobutanoate] + Cc1ccc(C)cc1
Result: 924.84 ± 0.15 kg/m3
